These measurements were taken from PubChem BioAssay (NCI).

# TGI annotations
tested on: EKVX NSCLC; test: NCI tumour cell line growth inhibition, 48 h

molecule | TGI
Nc1ncnc2c1ccn2-c1cccc(NC(=O)c2ccc(N3CCOCC3)c(C(F)(F)F)c2)c1 | 22.1 µM

Query :: I have this molecule here, CC(C)C1=CC2=C(C(=O)C1=O)C13CCCC(C)(C)C1CC2OC3=O (stereo unspecified) , and I need its recorded TGI.
Result :: 31.7 µM

Query :: I have this molecule here, "Fc1ccc(N=C2C=CC(=Nc3ccc(F)cc3)c3ccccc32)cc1" , and I need its recorded TGI.
Result :: > 100 µM

Query :: I have this molecule here, "COc1ccc(/C=C/C(=O)CCN2CCN(CCC(=O)/C=C/c3ccc(OC)cc3)CC2)cc1" , and I need its recorded TGI.
Result :: 28.2 µM

Query :: I have this molecule here, "Cn1c(=S)[nH]c(N)c(Cc2ccccc2)c1=O" , and I need its recorded TGI.
Result :: > 100 µM

Query :: I have this molecule here, "CC1=CC[C@@H](C(C)(C)O)C[C@@H]1O" , and I need its recorded TGI.
Result :: > 5000 µM

----------
test system: SK-MEL-5 melanoma; assay: NCI tumour cell line growth inhibition, 48 h; in the data active = GI50 below about 0.43 µM; inactive = the rest
Outcomes you can answer with include only these: 1 (active), -1 (inactive)

The following compounds have reported results that may help.
compound | assignedLabel
CC[C@@]1(O)C(=O)OCc2c1cc1n(c2=O)Cc2c-1nc1cc(F)c(C)c3c1c2[C@@H](NC(=O)CO)CC3 | 1
Cc1c(C(=O)c2ccccc2)[n+](=O)c2cc(F)c(F)cc2n1[O-] | -1
O=C(Nc1cccc(-n2cc(-c3ccncc3)c(-c3ccc(Cl)c(O)c3)n2)c1)Nc1ccc(Cl)c(Cl)c1 | -1

Query :: Dear all, I need the recorded test outcome for CCN(CC)CC(O)c1cc(-c2ccc(Cl)cc2)nc2c(C)c(Cl)ccc12 (stereo unspecified) , thank you.
Result :: -1

Query :: Dear all, I need the recorded test outcome for "O=C(N/N=C/c1ccncc1)c1ccc(F)cc1" , thank you.
Result :: -1

----------
tested on: HS 578T breast; experiment: NCI tumour cell line growth inhibition, 48 h; in the data active = GI50 below about 0.43 µM; inactive = the rest
Outcomes you can answer with include only these: Yes = active, No = inactive

The following molecules have reported results that may help.
molecule | assignedLabel
COc1cc(C2CC(c3cccc(Nc4ccnc5cc(Cl)ccc45)c3)=NN2c2ccccc2)cc(OC)c1OC (stereo not drawn) | No
C=CC(=O)N1CCC[C@@H](n2nc(-c3ccc(Oc4ccccc4)cc3)c3c(N)ncnc32)C1 | No
Nc1n[nH]c2ccc([C@@H]3Nc4ccc5cn[nH]c5c4[C@H]4C5CCC(C5)[C@@H]34)cc12 (stereo partly drawn) | Yes
COc1cc2c(cc1OCCCN1CCN(C(=S)SCCC(C#N)(c3ccccc3)c3ccccc3)CC1)N=C[C@@H]1CCCN1C2=O | No
CCN(CC)CC(O)c1cc(-c2ccc(Cl)cc2)nc2c(C)c(Cl)ccc12 (stereo not drawn) | No
Cc1cc(C)c2c(c1)N(C)c1ncnc(-n3cnc4cc(C)ccc43)c1CC2C (stereo not drawn) | No

Query :: Dear all, I need the recorded test outcome for "C#CCNC(=O)CC[C@@H](C)[C@H]1CC[C@H]2[C@@H]3CC[C@@H]4CC(=O)CC[C@]4(C)[C@H]3CC[C@]12C" , thank you.
Result :: No

Query :: Dear all, I need the recorded test outcome for CC1[C@@H]2CC=C3[C@H]4CCC5Cc6nc7c(nc6C[C@@]5(C)C4CC(=O)[C@]32CO[C@]12OC(C)(C)CC2O)CC1CC[C@@H]2C3=C[C@H]4O[C@@]5(O[C@@](C)(CO)C[C@@H]5O)C(C)[C@@]4(O)[C@]3(C)[C@@H](O)CC2[C@]1(C)C7 (stereo partly drawn) , thank you.
Result :: Yes

Query :: Dear all, I need the recorded test outcome for "COc1cc(C(=O)NN=C2c3ccccc3-c3ccccc32)cc(OC)c1OC" , thank you.
Result :: No

Query :: Dear all, I need the recorded test outcome for "CN(C)C1CN(C(=O)c2cc(-c3ccc4ncnc(N5CCc6cc(F)c(Cl)cc65)c4c3)cnc2N)C1" , thank you.
Result :: Yes

Query :: Dear all, I need the recorded test outcome for O=C1OCC2=C1C(c1cccc(Cl)c1)c1cc3c(cc1N2CCO)CCC3 (stereo not drawn) , thank you.
Result :: Yes

Query :: Dear all, I need the recorded test outcome for CCC(C)C1NC(=O)C(NC(=O)C(CC(C)C)N(C)C(=O)[C@@H]2CC(O)CN2C(=O)[C@H](C)O)C(C)OC(=O)[C@H](Cc2ccc(OC)cc2)N(C)C(=O)[C@@H]2CCCN2C(=O)[C@H](CC(C)C)NC(=O)C(C)C(=O)[C@H](C(C)C)OC(=O)CC1O (stereo partly drawn) , thank you.
Result :: Yes

Query :: Dear all, I need the recorded test outcome for "COc1cc(N(CCCl)CCCl)ccc1/C=N\NC(=O)c1cccnc1" , thank you.
Result :: No

Query :: Dear all, I need the recorded test outcome for "CC(=O)Nc1cc2c3c(cccc3c1)-c1ccccc1-2" , thank you.
Result :: No

----------
test system: UACC-257 melanoma; experiment: NCI tumour cell line growth inhibition, 48 h
# log10(TGI) annotations
Parameter value (number): base-10 log of TGI in µM.

compound | measValue
COc1ncc(-c2ccc3nccc(C#CCCCCC(=O)NO)c3c2)cc1NS(=O)(=O)c1ccc(F)cc1F | 0.16
N=c1oc2cc(O)ccc2cc1C(=O)Nc1cccc2ccccc12 | 1.61

Query :: I have this compound here, "COc1ccc2c(ccc3c(C(=O)NCCCN(C)CCCNC(=O)c4cn(C)c5c4ccc4cc(OC)ccc45)cn(C)c32)c1" , and I need its recorded log10(TGI).
Result :: 0.47

Query :: I have this compound here, NC1NCCC(=O)N1CCc1c[nH]c2ccccc12 (stereo not given) , and I need its recorded log10(TGI).
Result :: 1.51

Query :: I have this compound here, "O[C@@]12Cc3c([nH]c4ccccc34)[C@@H]3Oc4c(-c5ccccc5)ccc5c4[C@@]31CCN(CC1CC1)[C@@H]2C5" , and I need its recorded log10(TGI).
Result :: 0.54

Query :: I have this compound here, "COC(=O)c1c2c(c(C)[n+]([O-])c1C)C(=O)C(NCc1ccc(O)cc1)=CC2=O" , and I need its recorded log10(TGI).
Result :: 0.29

Query :: I have this compound here, Cc1ccc(NC(=O)CC2SC(=Nc3ccc(Cl)cc3)NC2=O)cc1C (stereo not given) , and I need its recorded log10(TGI).
Result :: 1.47

Query :: I have this compound here, "CCCCCCc1cc2cc(C(=O)Nc3cccc(F)c3)c(=N)oc2cc1O" , and I need its recorded log10(TGI).
Result :: 1.08

----------
system: 786-0 renal; experiment: NCI tumour cell line growth inhibition, 48 h; in the data active = GI50 below about 0.43 µM; inactive = the rest
Outcomes you can answer with include only these: active, inactive

The following compounds have reported results that may help.
compound | assignedLabel
COC(=O)c1c2c(c(C)[n+]([O-])c1C)C(=O)C(NCc1ccc(O)cc1)=CC2=O | inactive
CC[C@@]1(O)C(=O)OCc2c1cc1n(c2=O)Cc2c-1nc1cc(F)c(C)c3c1c2[C@@H](NC(=O)CO)CC3 | active
O=C(Nc1cccc(-n2cc(-c3ccncc3)c(-c3ccc(Cl)c(O)c3)n2)c1)Nc1ccc(Cl)c(Cl)c1 | inactive
O=C(CN1CCN(C(=O)c2ccco2)CC1)Nc1ccc(Cl)cc1C(=O)c1ccccc1Cl | inactive
CN(C)c1ccc(/C=c2/c3cc(O)ccc3n3c2cc(-c2ccccc2)[n+]3C)cc1 | inactive
CCN(CC)CC(O)c1cc(-c2ccc(Cl)cc2)nc2c(C)c(Cl)ccc12 (stereo not drawn) | inactive
COc1cc2c(cc1OCCCN1CCN(C(=S)SCCC(C#N)(c3ccccc3)c3ccccc3)CC1)N=C[C@@H]1CCCN1C2=O | inactive

Now take the following compound into account.
Query :: Dear all, I need the recorded test outcome for Nc1n[nH]c2ccc([C@@H]3Nc4ccc5cn[nH]c5c4[C@H]4C5CCC(C5)[C@@H]34)cc12 (stereo partly drawn) , thank you.
Result :: inactive

----------
# TGI annotations
system: SF-295 CNS; experiment: NCI tumour cell line growth inhibition, 48 h

Recorded TGI, per entry:
compound | TGI
Cc1cc(C)nc(NS(=O)(=O)c2ccc(NC(=O)COC(=O)c3cccc4c(=O)c5ccccc5[nH]c34)cc2)n1 | 95.5 µM
CCn1ncc(N=O)c1N | > 100 µM
CN(C)C1CN(C(=O)c2cc(-c3ccc4ncnc(N5CCc6cc(F)c(Cl)cc65)c4c3)cnc2N)C1 | > 100 µM

Query :: I have this compound here, "Cc1cccc(-c2nc(-c3cnccn3)n(Cc3ccccc3)n2)c1" , and I need its recorded TGI.
Result :: > 100 µM

Query :: I have this compound here, "Cc1[nH]nc(C(=O)N/N=C/c2ccccc2Cl)c1N=NN(C)C" , and I need its recorded TGI.
Result :: > 100 µM

Query :: I have this compound here, CC[C@@H](C)/C=C(C)/C=C/C(=O)c1c(O)c(-c2ccc(O)cc2)cn(OC2CC(=O)CCC(C)OC(=O)CC2O)c1=O (stereo not given in full) , and I need its recorded TGI.
Result :: 4.89 µM

Query :: I have this compound here, "OC(Cc1cc(CC(O)(C(F)(F)F)C(F)(F)F)nc(CC(O)(C(F)(F)F)C(F)(F)F)c1)(C(F)(F)F)C(F)(F)F" , and I need its recorded TGI.
Result :: 2.58 µM

Query :: I have this compound here, CC#CC#C/C=C1\C=CC2(OC=CC2O)O1 (stereo not given) , and I need its recorded TGI.
Result :: > 23.3 µM

Query :: I have this compound here, "O=C(Nc1ccc(F)cc1)c1cc2c(cc1Cl)Sc1nccn1S2(=O)=O" , and I need its recorded TGI.
Result :: > 100 µM

Query :: I have this compound here, "COc1c(B(O)O)cccc1-c1nc2c(F)cc3n[nH]c(C)c3c2c2c1CCCC2" , and I need its recorded TGI.
Result :: > 40.6 µM
